Assayed target: T1, laminin-511 (human, UniProt O15230 36-3695; P07942 22-1786; P11047 34-1609)
T1 construct: Full-length recombinant human laminin isoform (BioLamina); chains read from the isoform name
Protocol: ELISA, GF coated, laminin 10 nM
Quantity name: binding result

1) fibroblast growth factor (FGF)-18 (ligand, UniProt O76093 28-207, looked up, mature; Purchased in mature form) EENVDFRIHVENQTRARDDVSRKQLRLYQLYSRTSGKHIQVLGRRISARGEDGDKYAQLLVETDTFGSQVRIKGKETEFYLCMNRKGKLVGKPDGTSKECVFIEKVLENNYTALMSAKYSGWYVGFTKKGRPRKGPKTRENQQDVHFMKRYPKGQPELQKPFKYTTVTKRSRRIRPTHPA :: binds
2) brain-derived neurotrophic factor (BDNF) (ligand, UniProt P23560 129-247, looked up, mature; Purchased in mature form) HSDPARRGELSVCDSISEWVTAADKKTAVDMSGGTVTVLEKVPVSKGQLKQYFYETKCNPMGYTKEGCRGIDKRHWNSQCRTTQSYVRALTMDSKKRIGWRFIRIDTSCVCTLTIKRGR :: binds
3) bone morphogenetic protein (BMP)-2 (ligand, UniProt P12643 283-396, looked up, mature) QAKHKQRKRLKSSCKRHPLYVDFSDVGWNDWIVAPPGYHAFYCHGECPFPLADHLNSTNHAIVQTLVNSVNSKIPKACCVPTELSAISMLYLDENEKVVLKNYQDMVVEGCGCR :: binds
